For each record, write down the corresponding protein stability index.
B1: TRIM39 (parent)
chain: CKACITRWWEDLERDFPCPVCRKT

Variants of: B1
measurement_description: protein stability index of a GFP-peptide fusion (GPS, HEK-293T) (PSI 1-6); higher = more stable;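 also: lentivirally expressed fusions sorted by FACS into six bins by GFP to DsRed ratio, PSI derived from sequencing read proportions per bin multiplied by bin number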
conditions: c terminus: a fixed tail appended
Reply with just the number.

[Q] Please give the documented protein stability index of "CKACITRWWEDLERDFHCPVCRKT"
[A] 4

[Q] Please give the documented protein stability index of "CKACITRWWEDLERDFPCPVCSKT"
[A] 3.56

[Q] Please give the documented protein stability index of "CKACITRWWEDLEIDFPCPVCRKT"
[A] 3.26

[Q] Please give the documented protein stability index of "CKAPITRWWEDLERDFPCPVCRKT"
[A] 2.1

[Q] Please give the documented protein stability index of "CKACITRWWEDLERDFMCPVCRKT"
[A] 4.09

[Q] Please give the documented protein stability index of "CKACIARWWEDLERDFPCPVCRKT"
[A] 3.64

[Q] Please give the documented protein stability index of "CKACITIWWEDLERDFPCPVCRKT"
[A] 2.96

[Q] Please give the documented protein stability index of "CWACITRWWEDLERDFPCPVCRKT"
[A] 3.23

[Q] Please give the documented protein stability index of "CKACITRWWEDLERDCPCPVCRKT"
[A] 2.32

[Q] Please give the documented protein stability index of "CKACIRRWWEDLERDFPCPVCRKT"
[A] 3.42

[Q] Please give the documented protein stability index of "CKACITRWWEDLERDFPCPVGRKT"
[A] 1.4

[Q] Please give the documented protein stability index of "CKACIPRWWEDLERDFPCPVCRKT"
[A] 3.5

[Q] Please give the documented protein stability index of "CKACITRWWEDLERDFPHPVCRKT"
[A] 1.54

[Q] Please give the documented protein stability index of "CKACITRWWEFLERDFPCPVCRKT"
[A] 3.5

[Q] Please give the documented protein stability index of "CKACITRFWEDLERDFPCPVCRKT"
[A] 4.17

[Q] Please give the documented protein stability index of "CKACITRWWEDLERDFPCPHCRKT"
[A] 3.88

[Q] Please give the documented protein stability index of "CKACITYWWEDLERDFPCPVCRKT"
[A] 4.85

[Q] Please give the documented protein stability index of "CKACITRWWEDLERDFICPVCRKT"
[A] 3.97

src = the supplement of paper PMC10567573
